Where these numbers come from: patent US20250368729A1

Target: T1, synthetic amyloid-like fibrils of recombinant amyloidogenic λ6 variable domain protein (rVλ6Wil)
T1 construct: domain: λ6 variable domain; Fibrillar aggregate of many copies; also called rVλ6Wil fibrils; rVλ6Wil synthetic fibrils
Assay: EuLISA, substrate coated on plate
# maps each entry to its LogEC50

- VH9/VL4-p5R (humanized VH9/VL4 with peptide p5R fused to the N-terminal of the light chain) (antibody, V domains shown) VH: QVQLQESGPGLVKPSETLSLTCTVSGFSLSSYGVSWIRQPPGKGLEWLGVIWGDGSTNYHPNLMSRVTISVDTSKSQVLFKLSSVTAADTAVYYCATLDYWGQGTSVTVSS VL: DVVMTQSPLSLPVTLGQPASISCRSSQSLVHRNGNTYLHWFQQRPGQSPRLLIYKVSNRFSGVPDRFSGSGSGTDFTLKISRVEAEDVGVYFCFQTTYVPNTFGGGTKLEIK: 8.41 -log(M)
- VH6/VL3-p5 (humanized VH6/VL3 with peptide p5 fused to the N-terminal of the light chain) (antibody, V domains shown) VH: QVQLQESGPGLVKPSETLSLTCTVSGFSLSSYGVSWVRQPPGKGLEWLGVIWGDGSTNYHPNLMSRLSISKDTSKNQFSLKLSSVTAADTATYYCVTLDYWGQGTSVTVSS VL: DVVMTQSPLSLPVTLGQPASISCRSSQSLVHRNGNTYLHWYLQRPGQSPRLLIYKVSNRFSGVPDRFSGSGSGTDFTLKISRVEAEDVGLYFCFQTTYVPNTFGGGTKLEIK: 8.46 -log(M)
- murine Ig-peptide fusion Igp5 (murine 11-1F4 with peptide p5 fused to the N-terminus of the light chain) (antibody, Antibody-peptide fusion; unlabelled in the EuLISA; also called mIgp5; mIgG-p5; not shown: murine 11-1F4 (IgG1) CH1 followed by murine IgG2a CH2-CH3 (pFUSE-mIgG2A-Fc); murine 11-1F4 kappa constant region (CL)) heavy: QVQLKESGPGLVAPSQSLSITCTVSGFSLSSYGVSWVRQPPGKGLEWLGVIWGDGSTNYHPNLMSRLSISKDISKSQVLFKLNSLQTDDTATYYCVTLDYWGQGTSVTVSS light: AQAGQAGQAQGGGYSKAQKAQAKQAKQAQKAQKAQAKQAKQVTPTVDVVMTQTPLSLPVSLGDQASISCRSSQSLVHRNGNTYLHWYLQKPGQSPKLLIYKVSNRFSGVPDRFSGSGSGTDFTLKISRVEAEDLGLYFCFQTTYVPNTFGGGTKLEIK: 8.54 -log(M)

Please find the next binder below.
[Q] Provide LogEC50 value for the following binder: VH9/VL4-p5 (humanized VH9/VL4 with peptide p5 fused to the N-terminal of the light chain) (antibody, V domains shown) VH: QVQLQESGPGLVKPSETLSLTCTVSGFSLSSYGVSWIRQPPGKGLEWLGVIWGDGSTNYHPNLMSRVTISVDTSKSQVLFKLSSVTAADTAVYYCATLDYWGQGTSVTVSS VL: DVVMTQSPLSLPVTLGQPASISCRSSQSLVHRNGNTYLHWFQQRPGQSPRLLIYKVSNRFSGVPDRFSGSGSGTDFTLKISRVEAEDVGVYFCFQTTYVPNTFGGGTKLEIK
[A] 8.39 -log(M)
